Provide the reported kon of each item.
- measurement_target: T1, RSV F glycoprotein (NUF4) (respiratory syncytial virus)
- T1 chain 1: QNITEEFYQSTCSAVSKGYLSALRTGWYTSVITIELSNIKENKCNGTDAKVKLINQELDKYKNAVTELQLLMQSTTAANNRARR
- T1 chain 2: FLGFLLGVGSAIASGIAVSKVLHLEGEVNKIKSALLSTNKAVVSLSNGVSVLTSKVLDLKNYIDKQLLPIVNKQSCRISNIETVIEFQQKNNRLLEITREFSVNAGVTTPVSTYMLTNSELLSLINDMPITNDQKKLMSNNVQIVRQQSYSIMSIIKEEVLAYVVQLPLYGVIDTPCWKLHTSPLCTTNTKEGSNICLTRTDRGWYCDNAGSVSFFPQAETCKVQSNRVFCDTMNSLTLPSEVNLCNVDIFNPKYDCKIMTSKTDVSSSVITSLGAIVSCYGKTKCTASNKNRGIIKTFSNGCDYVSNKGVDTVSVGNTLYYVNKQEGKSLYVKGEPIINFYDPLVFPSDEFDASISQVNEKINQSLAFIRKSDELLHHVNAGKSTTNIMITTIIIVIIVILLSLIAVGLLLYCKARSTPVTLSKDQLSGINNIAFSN
- test_summary: BIAcore, mAb vs NUF4 (2:1)
Numbers only, in M⁻¹ s⁻¹.

// below: answered binders
>>> measurement("P11d4 (monoclonal antibody) (antibody, V domains shown, mAb with framework and constant regions of SYNAGIS) VH: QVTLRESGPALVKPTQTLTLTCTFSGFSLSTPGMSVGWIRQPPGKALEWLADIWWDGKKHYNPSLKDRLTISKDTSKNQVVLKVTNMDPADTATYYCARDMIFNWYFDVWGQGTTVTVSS VL: DIQMTQSPSTLSASVGDRVTITCSPSSRVGYMHWYQQKPGKAPKLLIYDTMRLASGVPSRFSGSGSGTEFTLTISSLQPDDFATYYCFQGSGYPFTFGGGTKVEIK")
366000
>>> measurement("P12f4 (monoclonal antibody) (antibody, V domains shown, mAb with framework and constant regions of SYNAGIS) VH: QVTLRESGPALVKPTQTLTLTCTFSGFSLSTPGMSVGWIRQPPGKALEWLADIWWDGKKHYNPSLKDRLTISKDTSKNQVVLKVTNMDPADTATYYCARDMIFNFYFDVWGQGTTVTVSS VL: DIQMTQSPSTLSASVGDRVTITCSLSSRVGYMHWYQQKPGKAPKLLIYDTRGLPSGVPSRFSGSGSGTEFTLTISSLQPDDFATYYCFQGSGYPFTFGGGTKVEIK")
273000
>>> measurement("A4B4 (monoclonal antibody) (antibody, V domains shown, mAb; also called A4B4/A4B4 (HC/LC)) VH: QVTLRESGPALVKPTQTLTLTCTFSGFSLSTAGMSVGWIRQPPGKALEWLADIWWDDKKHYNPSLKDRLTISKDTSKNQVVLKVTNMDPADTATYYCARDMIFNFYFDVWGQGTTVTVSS VL: DIQMTQSPSTLSASVGDRVTITCSASSRVGYMHWYQQKPGKAPKLLIYDTFFLDSGVPSRFSGSGSGTEFTLTISSLQPDDFATYYCFQGSGYPFTFGGGTKLEIK")
203000
>>> measurement("A1e9 (monoclonal antibody) (antibody, V domains shown, mAb with framework and constant regions of SYNAGIS; also called Ale9) VH: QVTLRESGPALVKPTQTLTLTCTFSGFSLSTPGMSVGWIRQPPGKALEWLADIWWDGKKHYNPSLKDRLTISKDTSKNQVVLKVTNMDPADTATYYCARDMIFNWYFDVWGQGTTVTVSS VL: DIQMTQSPSTLSASVGDRVTITCSLSSRVGYMHWYQQKPGKAPKLLIYDTFKLSSGVPSRFSGSGSGTEFTLTISSLQPDDFATYYCFQGSGYPFTFGGGTKVEIK")
329000

// below: kon requested for another binder
response.value for P12f2 (monoclonal antibody) (antibody, V domains shown, mAb with framework and constant regions of SYNAGIS; also called Pf12) VH: QVTLRESGPALVKPTQTLTLTCTFSGFSLSTPGMSVGWIRQPPGKALEWLADIWWDDKKHYNPSLKDRLTISKDTSKNQVVLKVTNMDPADTATYYCARDMIFNFYFDVWGAGTTVTVSS VL: DIQMTQSPSTLSASVGDRVTITCSLSSRVGYMHWYQQKPGKAPKLLIYDTFYLSSGVPSRFSGSGSGTEFTLTISSLQPDDFATYYCFQGSGYPFTFGGGTKVEIK (field: kon) = 282000
